- System: COLO 205 colon
- assay-text: NCI tumour cell line growth inhibition, 48 h
experimental-endpoint: TGI

Inquiry: Entry CC(C)C[C@@H]1NC(=O)[C@@H]2CCCN2C(=O)[C@@H]2CCCN2C(=O)[C@H](CC(C)C)NC(=O)[C@H](CO)NC(=O)[C@H](CCCCN)NC(=O)[C@H]([C@H](C)O)NC(=O)[C@@H]2CCCC[C@@H](NC1=O)C(=O)N[C@@H](Cc1ccccc1)C(=O)N1CCC[C@H]1C(=O)N[C@@H](CC(=O)O)C(=O)NCC(=O)N[C@@H](CCCN=C(N)N)C(=O)N2 , system COLO 205 colon: what TGI was measured?
Reply text: > 50 µM

Others:
Inquiry: Entry OC(C/C(=N\N=C(/CC(O)(C(F)(F)F)C(F)(F)F)c1ccccc1)c1ccccc1)(C(F)(F)F)C(F)(F)F , system COLO 205 colon: what TGI was measured?
Reply text: > 10 µM

Inquiry: Entry COc1cccc(C[C@H]2COC(=O)[C@]2(O)Cc2cccc(OC)c2)c1 , system COLO 205 colon: what TGI was measured?
Reply text: > 100 µM

Inquiry: Entry Clc1ccc(-c2nnc(C34CC5CC(CC(C5)C3)C4)o2)cc1 , system COLO 205 colon: what TGI was measured?
Reply text: > 100 µM
